Biological target: human IP receptors (Homo sapiens)
Construct: expressed in transfected cells
Sequence (P43119 whole entry): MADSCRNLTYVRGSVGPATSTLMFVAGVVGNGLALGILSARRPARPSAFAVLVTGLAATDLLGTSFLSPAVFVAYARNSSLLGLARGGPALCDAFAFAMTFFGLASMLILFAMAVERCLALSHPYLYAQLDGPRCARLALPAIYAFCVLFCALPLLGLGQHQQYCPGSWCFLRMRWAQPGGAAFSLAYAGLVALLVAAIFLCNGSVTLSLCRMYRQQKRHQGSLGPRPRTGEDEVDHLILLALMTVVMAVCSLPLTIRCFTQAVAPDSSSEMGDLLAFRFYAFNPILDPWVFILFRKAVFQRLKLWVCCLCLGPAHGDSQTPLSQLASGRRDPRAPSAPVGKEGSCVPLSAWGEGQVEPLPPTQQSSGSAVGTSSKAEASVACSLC
Experiment: cell-based cAMP TR-FRET assay, IP (agonist iloprost)
Settings: Table 2; extrapolated Schild KB from single concentration of 10 μM
Rule: potency estimated from few doses of 10 µM or more gives true; anything lower gives false.

Solved entries:
smiles_input | target_entity | group
Cc1cc2ccccc2n1CCNC(=O)c1ccc(N2CCN(C)CC2)c(F)c1 | human IP receptors (Homo sapiens) | true
CCN(CC)c1ccc(C(=O)NCCn2c(C)cc3ccccc32)cc1 | human IP receptors (Homo sapiens) | false
Cc1cc2ccccc2n1CCNC(=O)c1ccc(N2CCCCCC2)cc1 | human IP receptors (Homo sapiens) | false
Cc1cc2ccccc2n1CCNC(=O)c1ccc(-c2nnn[nH]2)cc1 | human IP receptors (Homo sapiens) | true
Cc1cc2ccccc2n1CCNC(=O)c1ccc(N(C)C)cc1 | human IP receptors (Homo sapiens) | false
CCCN(CCC)c1ccc(C(=O)NCCn2c(C)cc3ccccc32)cc1 | human IP receptors (Homo sapiens) | false
Cc1cc2ccccc2n1CCNC(=O)c1ccc2c(c1)n(C)c(=O)n2C | human IP receptors (Homo sapiens) | true
Cc1[nH]c2ccccc2c1CCNC(=O)c1ccc(N(C)C)cc1 | human IP receptors (Homo sapiens) | true
Cc1cc2ccccc2n1CCNC(=O)c1ccc(N2CCC(O)CC2)cc1 | human IP receptors (Homo sapiens) | true
Cc1cc2ccccc2n1CCNC(=O)c1ccc(N2CCCCC2)cc1 | human IP receptors (Homo sapiens) | false

Could you now consider this next compound?
*Q* Could you tell me if the measured potency estimated from few doses of CCN(CC)c1ccc(C(=O)NCCc2c(C)[nH]c3ccccc23)cc1 reaches 10 µM or more?
*A* true

Source of measurements: patent US11077120B2
